Settings: in methanol, 283.15 K
endpoint_name: solubility (mole fraction)
Keep the answer to the number alone.

Exercise: For the compound "Cc1cc(C)c(C(=O)P(=O)(c2ccccc2)c2ccccc2)c(C)c1" , give its reported solubility (mole fraction).
Key: 0.145

====

Conditions: in methyl acetate, 278.15 K
endpoint_name: solubility (mole fraction)

Exercise: For the compound "Cc1cc(C)c(C(=O)P(=O)(c2ccccc2)c2ccccc2)c(C)c1" , give its reported solubility (mole fraction).
Key: 0.0616

====

Settings: in n-propanol, 273.15 K
endpoint_name: solubility (mole fraction)
Keep the answer to the number alone.

Exercise: For the compound "Cc1cc(C)c(C(=O)P(=O)(c2ccccc2)c2ccccc2)c(C)c1" , give its reported solubility (mole fraction).
Key: 0.0827

====

Conditions: in acetonitrile, 288.15 K
endpoint_name: solubility (mole fraction)
Keep the answer to the number alone.

Exercise: For the molecule "Cc1cc(C)c(C(=O)P(=O)(c2ccccc2)c2ccccc2)c(C)c1" , give its reported solubility (mole fraction).
Key: 0.0687

====

Details: in methanol, 293.15 K
endpoint_name: solubility (mole fraction)
Keep the answer to the number alone.

Exercise: For the molecule "Cc1cc(C)c(C(=O)P(=O)(c2ccccc2)c2ccccc2)c(C)c1" , give its reported solubility (mole fraction).
Key: 0.195

====

Settings: in n-propanol, 303.15 K
endpoint_name: solubility (mole fraction)

Exercise: For the compound "Cc1cc(C)c(C(=O)P(=O)(c2ccccc2)c2ccccc2)c(C)c1" , give its reported solubility (mole fraction).
Key: 0.226

====

Settings: in methanol, 303.15 K
endpoint_name: solubility (mole fraction)
Keep the answer to the number alone.

Exercise: For the compound "Cc1cc(C)c(C(=O)P(=O)(c2ccccc2)c2ccccc2)c(C)c1" , give its reported solubility (mole fraction).
Key: 0.272

====

Details: in acetonitrile, 278.15 K
endpoint_name: solubility (mole fraction)
Keep the answer to the number alone.

Exercise: For the compound "Cc1cc(C)c(C(=O)P(=O)(c2ccccc2)c2ccccc2)c(C)c1" , give its reported solubility (mole fraction).
Key: 0.0312

====

Conditions: in methanol, 288.15 K
endpoint_name: solubility (mole fraction)
Keep the answer to the number alone.

Exercise: For the compound "Cc1cc(C)c(C(=O)P(=O)(c2ccccc2)c2ccccc2)c(C)c1" , give its reported solubility (mole fraction).
Key: 0.172

====

Details: in acetone, 273.15 K
endpoint_name: solubility (mole fraction)

Exercise: For the compound "Cc1cc(C)c(C(=O)P(=O)(c2ccccc2)c2ccccc2)c(C)c1" , give its reported solubility (mole fraction).
Key: 0.0685

====

Conditions: in ethyl acetate, 293.15 K
endpoint_name: solubility (mole fraction)
Keep the answer to the number alone.

Exercise: For the molecule "Cc1cc(C)c(C(=O)P(=O)(c2ccccc2)c2ccccc2)c(C)c1" , give its reported solubility (mole fraction).
Key: 0.102

====

Details: in methanol, 273.15 K
endpoint_name: solubility (mole fraction)

Exercise: For the compound "Cc1cc(C)c(C(=O)P(=O)(c2ccccc2)c2ccccc2)c(C)c1" , give its reported solubility (mole fraction).
Key: 0.11

====

Conditions: in methyl acetate, 283.15 K
endpoint_name: solubility (mole fraction)
Keep the answer to the number alone.

Exercise: For the compound "Cc1cc(C)c(C(=O)P(=O)(c2ccccc2)c2ccccc2)c(C)c1" , give its reported solubility (mole fraction).
Key: 0.0767
